# Tested on: Tau phosphorylation at Ser396 (pSer396), SH-SY5Y cells
# Protocol text: Tau phosphorylation at Ser396 (pSer396) in SH-SY5Y cells, ELISA/western blot
# Assay type: cell-based, human
# Run conditions: Homo sapiens; SH-SY5Y cells, overnight (16-18 h); read-out: pSer396 Tau EC50
Value type: EC50 (nM)

• Cc1nnc(-c2ccc3cnc(NC(=O)N4CCC(N)CC4)cc3c2)s1 [Compound 150] = 272
• Cc1ncc(-c2cc3cc(NC(=O)[C@H]4CC[C@H](N5CCOCC5)CC4)ncc3cc2F)o1 [Compound 55] = 178
• Cc1ncc(-c2ccc3cnc(NC(=O)C4CCC(N5CC5CF)CC4)cc3c2)o1 (centres unmarked) [Compound 154] = 580
• Cc1nnc(-c2ccc3cnc(NC(=O)CN4CCOCC4)cc3c2)n1C [Compound 15] = 981
• [2H]c1c([2H])c([2H])c(/C=C/C(=O)Nc2cc3cc(-c4cnc(C)n4C)ccc3cn2)c([2H])c1[2H] [Compound 90] = 171
• Cc1nnc(-c2ccc3cnc(NC(=O)[C@H]4CC[C@H](N)CC4)cc3c2)s1 [Compound 21] = 566
• Cc1nnc(-c2ccc3cnc(NC(=O)C4CCN(CC(F)F)CC4)cc3c2)s1 [Compound 27] = 104
• Cc1cn2c(n1)CN(C(=O)Nc1cc3cc(-c4nnc(C)s4)ccc3cn1)CC2 [Compound 58] = 58

###

# Tested on: Tau phosphorylation at Ser396 (pSer396), SH-SY5Y cells
# Protocol text: Tau phosphorylation at Ser396 (pSer396) in SH-SY5Y cells, ELISA/western blot
# Assay type: cell-based, human
# Run conditions: Homo sapiens; SH-SY5Y cells, overnight (16-18 h); read-out: pSer396 Tau EC50
pEC50: −log10 of the molar value.
Value type: pEC50

* Cc1ncc(-c2ccc3cnc(NC(=O)[C@H]4CC[C@H](NCCC(F)(F)F)CC4)cc3c2)o1 [Compound 148] | 6.22
* Cc1ncc(-c2ccc3cnc(NC(=O)C4CCN(C)CC4)cc3c2)o1 [Compound 47] | 6.76
* Cn1cc(-c2ccc3cnc(NC(=O)[C@H]4CC[C@H](NCCF)CC4)cc3c2)cn1 [Compound 197] | 6.24

###

# System: SW480 colon carcinoma cells
# Protocol text: Cell viability assay (CellTiter-Glo) in SW480 cells
# Format: cell-based, human
# Run conditions: Homo sapiens, SW480; read-out: percent inhibition at 10 μM
# label = condition met if inhibition at 10 µM >= 30% else condition not met

- [2H]C1([2H])OC([2H])([2H])C([2H])([2H])N(CC(=O)Nc2cc3cc(-c4cnn(C)c4)ccc3cn2)C1([2H])[2H]: condition not met
- CN1CCC(N(C)C(=O)Nc2cc3cc(-c4cnn(C)c4)cc(F)c3cn2)CC1: condition met
- Cc1nnc(-c2ccc3cnc(NC(=O)N4CCC(N(C)CC(F)F)CC4)cc3c2)s1: condition not met
- CC(C)CN1CCC(C(=O)Nc2cc3cc(-c4ccn(C)n4)ccc3cn2)CC1: condition met
- Cc1nnc(-c2ccc3cnc(NC(=O)N4CC[C@@H](N)[C@H](F)C4)cc3c2)s1: condition met
- Cn1cc(-c2ccc3cnc(NC(=O)c4ccnc(N5CC[N+](C)([O-])CC5)c4)cc3c2)nn1: condition not met
- Cc1nnc(-c2ccc3cnc(NC(=O)N(C)C4CCN(C)CC4)cc3c2)s1: condition not met
- COCCN[C@H]1CC[C@H](C(=O)Nc2cc3cc(-c4cnn(C)c4)cc(F)c3cn2)CC1: condition not met
- Cc1nnc(-c2ccc3cnc(NC(=O)N[C@H]4CCN(C)C[C@@H]4F)cc3c2)s1: condition met
- Cc1nnc(-c2ccc3cnc(NC(=O)N4C[C@H]5C[C@@H]4CN5C)cc3c2)s1: condition not met
- Cc1ncc(-c2ccc3cnc(NC(=O)N4CCC(N5CCOCC5)CC4)cc3c2)o1: condition met
- Cc1ncc(-c2ccc3cnc(NC(=O)N(C)C4CCN(C)CC4)cc3c2)o1: condition met
- [2H]C1([2H])OC([2H])([2H])C([2H])([2H])N(CC(=O)Nc2cc3cc(-c4cnc(C)o4)ccc3cn2)C1([2H])[2H]: condition not met
- [2H]C1([2H])OC([2H])([2H])C([2H])([2H])N(CC(=O)Nc2cc3cc(-c4cnc(C)s4)ccc3cn2)C1([2H])[2H]: condition not met
- Cn1cc(-c2ccc3cnc(NC(=O)CN4CCOCC4)cc3c2)nn1: condition met
- [2H]C([2H])([2H])[N+]1([O-])CCN(c2cc(C(=O)Nc3cc4cc(-c5cn(C)nn5)ccc4cn3)ccn2)CC1: condition met
- Cn1cc(-c2cc(F)c3cnc(NC(=O)[C@H]4CC[C@@H](N(C)C)CC4)cc3c2)cn1: condition not met

###

# Test system: Tau phosphorylation at Ser396 (pSer396), SH-SY5Y cells
# Protocol text: Tau phosphorylation at Ser396 (pSer396) in SH-SY5Y cells, ELISA/western blot;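 also: cell lysates probed for reduced Tau pSer396 via ELISA (colorimetric) or western blot (chemiluminescence), both with one shared pSer396 antibody, EC50 for lowering phosphorylation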
# Format: cell-based, human
# Run conditions: Homo sapiens; SH-SY5Y cells, overnight (16-18 h); read-out: pSer396 Tau EC50
pEC50: −log10 of the molar value.
Value type: pEC50

• Cc1nnc(-c2ccc3cnc(NC(=O)N4CCC(NCCC(F)(F)F)CC4)cc3c2)s1 [Compound 147] = 5.96
• [2H]c1c(NC(=O)CN2CCOCC2)ncc2ccc(-c3cnc(C)o3)cc12 [Compound 137] = 6.24
• CN[C@H]1CC[C@H](C(=O)Nc2cc3cc(-c4cnc(C)o4)ccc3cn2)CC1 [Compound 16] = 6.54
• [2H]c1c([2H])c(C(=O)Nc2cc3cc(-c4cncn4C)ccc3cn2)c([2H])c([2H])c1OC([2H])([2H])[2H] [Compound 88] = 7.80
• Cc1nnc(-c2ccc3cnc(NC(=O)[C@H]4CC[C@H](N5CCOCC5)CC4)cc3c2)s1 [Compound 23] = 6.79
• Cc1nnc(-c2ccc3cnc(NC(=O)N4CCC(N(C)CC(F)F)CC4)cc3c2)s1 [Compound 32] = 6.05
• Cc1nnc(-c2ccc3cnc(NC(=O)N4CC[C@H](NC(C)C)[C@@H](F)C4)cc3c2)s1 [Compound 35] = 6.27
• Cn1cc(-c2ccc3cnc(NC(=O)[C@H]4CC[C@H](N5CCOCC5)CC4)cc3c2)nn1 [Compound 100] = 6.95
• CNC1CCN(C(=O)Nc2cc3cc(-c4nnc(C)s4)ccc3cn2)CC1 [Compound 30] = 6.34
• Cn1cc(-c2ccc3cnc(NC(=O)C4CCN(C(C)(C)C)CC4)cc3c2)cn1 [Compound 167] = 6.54
• Cc1nnc(-c2ccc3cnc(NC(=O)C4CCN(CCC(F)(F)F)CC4)cc3c2)s1 [Compound 38] = 7.17

###

# Assayed system: UniProt:Q13627
# Protocol text: DYRK1A kinase assay (Ser/Thr 18 peptide Z-lyte, FRET)
pEC50: −log10 of the molar value.
Value type: pEC50

- [2H]C([2H])([2H])[N+]1([O-])CCN(c2cc(C(=O)Nc3cc4cc(-c5cn(C)nn5)ccc4cn3)ccn2)CC1 [Compound 226]: 8.40
- [2H]c1c([2H])c(C(=O)Nc2cc3cc(-c4cncn4C)ccc3cn2)c([2H])c([2H])c1Cl [Compound 83]: 8.70
- [2H]C([2H])([2H])N([C@H]1CC[C@H](C(=O)Nc2cc3cc(-c4cnn(C)c4)ccc3cn2)CC1)C([2H])([2H])[2H] [Compound 145]: 8.70
- [2H]C1([2H])OC([2H])([2H])C([2H])([2H])N(CC(=O)Nc2cc3cc(-c4cnc(C)s4)ccc3cn2)C1([2H])[2H] [Compound 41]: 7.57
- [2H]C([2H])([2H])N([C@H]1CC[C@H](C(=O)Nc2cc3cc(-c4cnc(C)o4)ccc3cn2)CC1)C([2H])([2H])[2H] [Compound 144]: 7.70
- [2H]c1c(NC(=O)CN2CCOCC2)ncc2ccc(-c3cnn(C)c3)cc12 [Compound 68]: 8.15
- [2H]c1c(NC(=O)CN2CCOCC2)ncc2ccc(-c3cnc(C)o3)cc12 [Compound 137]: 7.74

###

# Tested on: SW480 colon carcinoma cells
# Protocol text: Cell viability assay (CellTiter-Glo) in SW480 cells;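 also: SW480 cells stably carrying an Sp5-luciferase TCF/LEF reporter, luminescent ATP signal as viability measure, DMSO-treated cells as control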
# Assay type: cell-based, human
# Run conditions: Homo sapiens, SW480; read-out: percent inhibition at 10 μM
# label = 1 if inhibition at 10 µM >= 40% else 0

• Cn1cc(-c2ccc3cnc(NC(=O)c4cc[n+]([O-])c(N5CC[N+](C)([O-])CC5)c4)cc3c2)nn1 = 0
• [2H]c1c(NC(=O)CN2CCOCC2)ncc2ccc(-c3nnc(C)s3)cc12 = 0
• Cc1nnc(-c2ccc3cnc(NC(=O)N4CCC(NCC(F)F)CC4)cc3c2)s1 = 0
• [2H]c1c(NC(=O)CN2CCOCC2)ncc2ccc(-c3cnn(C)c3)cc12 = 1
• Cc1nnc(-c2ccc3cnc(NC(=O)N4CCC(NC(CF)CF)CC4)cc3c2)s1 = 0
• Cc1ncc(-c2cc(F)c3cnc(NC(=O)[C@H]4CC[C@H](N5CCOCC5)CC4)cc3c2)o1 = 1
• Cc1ncc(-c2cc(F)c3cnc(NC(=O)[C@H]4CC[C@H](C(=O)N5CCN(C)CC5)CC4)cc3c2)o1 = 0
• Cc1ncc(-c2cc(F)c3cnc(NC(=O)N(C)C4CCN(C)CC4)cc3c2)o1 = 1
